Experiment: chemical genetic growth profiling, strain panel (AID 1159580);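 also: tested at 20 µM; growth read once vehicle control cultures reached saturation at 30 °C; 1 = growth at the plate median or of vehicle wells; lower values mean less growth of the strain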
Conditions: S. cerevisiae deletion strains, growth OD, locus YML016C, strain PPZ1, hits give low values
The campaign covered roughly 5,500 compounds. About 2,000 (36%) were called active. Another 18% or so got no clear call; they are omitted. Some of the results follow.
Exercise: state measured normalized growth for each of the molecules provided.
Answer with a number only.

QUERY: Need normalized growth of "CN(C)CCCN1c2ccccc2Sc2ccc(C(F)(F)F)cc21" , thanks.
RESULT: 0.994

QUERY: Would you mind doing CC(C)=CC1C(C(=O)O)C1(C)C (stereo not given) as well?
RESULT: 0.999

QUERY: Would you mind doing "CN(C)CCCN1c2ccccc2Sc2ccc(Cl)cc21" as well?
RESULT: 1

QUERY: Would you mind doing "NNCc1cccc(O)c1" as well?
RESULT: 0.993

QUERY: Would you mind doing "OC[C@H]1O[C@@H](O[C@@H]2[C@@H](CO)O[C@](O)(CO)[C@H]2O)[C@H](O)[C@@H](O)[C@H]1O" as well?
RESULT: 0.993

QUERY: Would you mind doing "CN(C)C(=O)Oc1cccc([N+](C)(C)C)c1" as well?
RESULT: 0.987

QUERY: Would you mind doing "COc1ccc2cc(CCC(C)=O)ccc2c1" as well?
RESULT: 0.941

QUERY: Would you mind doing "CC[N+](C)(C)c1cccc(O)c1" as well?
RESULT: 0.992

QUERY: Would you mind doing "NS(=O)(=O)c1cc2c(cc1Cl)NC(CSCc1ccccc1)=NS2(=O)=O" as well?
RESULT: 0.987

QUERY: Would you mind doing CCC(C)[C@H]1O[C@]2(C=C[C@@H]1C)C[C@@H]1C[C@@H](C/C=C(\C)[C@@H](OC3C[C@H](OC)C(O[C@H]4C[C@H](OC)[C@@H](O)[C@H](C)O4)[C@H](C)O3)[C@@H](C)/C=C/C=C3\CO[C@@H]4[C@H](O)C(C)=C[C@@H](C(=O)O1)[C@]34O)O2 (stereo not given in full) as well?
RESULT: 1

QUERY: Would you mind doing "O=C1NC(O)=NC1(c1ccccc1)c1ccccc1" as well?
RESULT: 1.01

QUERY: Would you mind doing COc1ccc(C2Sc3ccccc3N(CCN(C)C)C(=O)C2OC(C)=O)cc1 (stereo not given) as well?
RESULT: 1.01

QUERY: Would you mind doing "CN(C)CCCN1c2ccccc2Sc2ccccc21" as well?
RESULT: 1.01

QUERY: Would you mind doing CC(CCc1ccccc1)NCC(O)c1ccc(O)c(C(N)=O)c1 (stereo not given) as well?
RESULT: 1.01

QUERY: Would you mind doing "C=C1C[C@]23C[C@@]1(O)CC[C@H]2[C@@]12C=C[C@H](O)[C@@](C)(C(=O)O1)[C@H]2[C@@H]3C(=O)O" as well?
RESULT: 0.984

QUERY: Would you mind doing CC(C)CCCC(C)C1CC[C@@]2(C)C3=C(CC[C@]12C)[C@@]1(C)CC[C@H](O)C(C)(C)C1CC3 (stereo not given in full) as well?
RESULT: 0.997

QUERY: Would you mind doing "OC[C@H]1O[C@@](CO)(O[C@@H]2O[C@H](CO)[C@@H](O)[C@H](O)[C@H]2O)[C@@H](O[C@@H]2O[C@H](CO)[C@@H](O)[C@H](O)[C@H]2O)[C@@H]1O" as well?
RESULT: 1.01

QUERY: Would you mind doing C=C(C)C1(O)OC(=O)C=C1OC (stereo not given) as well?
RESULT: 0.978

QUERY: Would you mind doing "CN(C)CCCN1c2ccccc2CCc2ccc(Cl)cc21" as well?
RESULT: 0.978

QUERY: Would you mind doing CCC(C)C(=O)OC1[C@@H]2CC3=C4CC(=O)O[C@@H](c5ccoc5)[C@]4(C)CCC3[C@@](C)(C2=O)[C@@H](CC(=O)OC)C1(C)C (stereo not given in full) as well?
RESULT: 0.997

Origin of values: PubChem BioAssay AID1159580
